- Test system: P12-Ichikawa
- Method Description: cell viability relative to DMSO control; higher = less cytotoxic
- Cond: HPLM + 10% dialyzed FBS; 48 h; 0.0632 µM
Readout Name: cell viability (%)
Report the figure in % without appending any unit label.

# Compound, cell viability (%)
data = [
    ("CC(C)(C)C(=O)Oc1ccc2c(c1)nc(NC(=O)c1cccc([N+](=O)[O-])c1)n2CCCO", 115),
    ("CC\\1=C(C(\\N=C(/N1)C2=CC(=NC=C2)Cl)C3=C(F)C=C(Cl)C=C3)/C(=O)NC4=C(F)C=C5[NH]N=CC5=C4 (stereo not drawn)", 111),
    ("CCC1(C)CC(=O)NC1=O (stereo not drawn)", 108),
]

P12-Ichikawa assay, compound `Cc1c(CN2CCN(C(=O)[C@H](C)O)CC2)sc2c(N3CCOCC3)nc(-c3cnc(N)nc3)nc12` , recorded cell viability = 94.9

P12-Ichikawa assay, compound `C[C@@H](NC1=CC=CC=C1C(O)=O)C/2=C/C(=C\N3C(=O)/C=C(\N=C23)N4CCOCC4)C` , recorded cell viability = 95.9

P12-Ichikawa assay, compound `OC(=O)C1=CC=C(NC2=NC3=C(C\N=C(/C4=CC(=CC=C34)Cl)C5=C(F)C=CC=C5F)C=N2)C=C1` , recorded cell viability = 104

P12-Ichikawa assay, compound `C[C@](O)(COc1ccc(C#N)cc1)C(=O)Nc1ccc(C#N)c(C(F)(F)F)c1` , recorded cell viability = 99.2

P12-Ichikawa assay, compound `CC1(C)Cc2c(-c3ccccc3)c(-c3ccc(Cl)cc3)c(CC(=O)O)n2C1` , recorded cell viability = 118
